Test system: SK-OV-3
assay-name: NCI tumour cell line growth inhibition, 48 h
The source made the active and inactive calls. Cut-off read from the data, not from the text of the source: active = GI50 up to about 1.1 µM and inactive = higher.
reported-metric: GI50

Known results for compounds:
| compound | reported |
| --- | --- |
| CCOC(=O)c1c(N2CCCC2)[nH]c(=O)c(C(c2ccc(N(C)C)cc2)c2c(O)c(C(=O)OCC)c(N3CCCC3)[nH]c2=O)c1O | > 100 µM (inactive) |
| CC1=CC2C(C=C1)S(=O)(=O)N1CC21c1ccccc1 (stereo not drawn) | > 100 µM (inactive) |

Look up GI50 for the entries below, preserving their order.
1. CCCCCCCCCCOC1C(C(O)CNCCCN(C)C)OC2OC3(CCCCC3)OC21 (stereo not drawn)
2. Nc1nc(Cl)cc(NCCC2(CO)CCC2)n1
3. O/N=C1\C(=C\c2ccc3c(c2)OCCO3)CCCC1C(NO)c1ccc2c(c1)OCCO2 (stereo not drawn)
4. CC1OC(OC2C(O[C@H]3CC[C@@]4(C)[C@@H](CC[C@@H]5[C@@H]4CC[C@]4(C)[C@@H]6[C@H](C[C@@H]54)O[C@]4(CC[C@@H](C)CO4)[C@H]6C)C3)OC(CO)C(OC3OC(CO)C(O)C(OC4OCC(O)C(O)C4O)C3OC3OCC(O)C(O)C3O)C2O)C(O)C(O)C1O (stereo partly drawn)

["3.65 µM (inactive)", "> 100 µM (inactive)", "49.9 µM (inactive)", "1.9 µM (inactive)"]

Look up GI50 for the entries below, preserving their order.
1. Cc1ccccc1C(=O)c1cc(O)ccc1O
2. CC(C)CCC[C@@H](C)[C@H]1CC[C@H]2C3=C[C@H](OS(=O)(=O)O)[C@@]4(O)C[C@@H](O)CC[C@]4(C)[C@@]3(O)CC[C@]12C
3. CC1CCCC2(O1)OC1CC(=O)OC1C1=C2C(=O)c2ccccc2C1=O (stereo not drawn)
4. CCCN1C(=O)/C(=C(/O)C(=O)OCC)C(c2ccc(OC)c(OC)c2)C1=O (stereo not drawn)
5. Cc1ccc2c(c1)C(=S)N1CSCC1c1nncn1-2 (stereo not drawn)
6. CC(=O)N1C(Nc2ccccc2)CCN1c1ccccc1 (stereo not drawn)

1. > 100 µM (inactive)
2. > 100 µM (inactive)
3. 16.4 µM (inactive)
4. > 100 µM (inactive)
5. > 100 µM (inactive)
6. > 10 µM (inactive)

----------
Test system: UO-31
assay-name: NCI tumour cell line growth inhibition, 48 h
Active and inactive are the calls of the source. Cut-off read from the data, not from the text of the source: active = GI50 up to about 1.1 µM and inactive = higher.
In this exercise, the only acceptable responses are active, inactive

| compound | category-label |
| --- | --- |
| c1cc(C2O[C@H]3CCCN3[C@@H]2c2ccncc2)ccn1 (some centres not stated) | inactive |
| CC(C)(C)C1CCC2c3c([nH]c4ccccc34)C3C(=O)N(c4cccc(Cl)c4)C(=O)C3C2C1 (configuration not stated) | inactive |
| CNC(=O)N(C1=NCC(C)S1)c1ccc(C)c(C)c1 (configuration not stated) | inactive |

Test call, this compound: CC1(C)C/C(=N/O)c2c(nc3ccc4ccccc4c3c2-c2ccc(Cl)cc2)C1
inactive

Test call, this compound: CCOC(=O)NC(=S)NN(C)C1=NCC(C)(C)S1
inactive

Test call, this compound: COc1ccc(/C=c2\sc3n(c2=O)CCN=3)cc1
inactive

Test call, this compound: O=C1c2c(Br)sc(Br)c2[C@@H](O)[C@H]1O
inactive
